These data points were gathered from patent US20210403485A1.

# assay.procedure: Pharmacokinetic test of compounds in rats (plasma, LC/MS/MS)
# Type: in vivo, male SD rats
# conditions: PO, 10 mg/kg
Entries and their measured Area under the curve AUC0-last follow.
Note to self: number, then unit, no commentary.

1. C[C@@H]1COc2ncc(F)cc2[C@H]2COC[C@@H](C)N2c2ccn3ncc(c3n2)C(=O)N1	6.637 µM·h
2. C[C@H]1CNC(=O)c2cnn3ccc(nc23)N2CCOC[C@@H]2c2cc(F)cnc2O1 [WX004B]	4.715 µM·h
3. O=C1NC2(CC2)COc2ncc(F)cc2[C@H]2CCOCCN2c2ccn3ncc1c3n2 [WX009A]	9.696 µM·h

input: Form field: reported Area under the curve AUC0-last of C[C@@H]1COC[C@@H]2c3cc(F)cnc3O[C@@H](C)CNC(=O)c3cnn4ccc(nc34)N12
output: 2.282 µM·h

----------
# experimental.system: Ba/F3 LMNA-NTRK1-WT (Homo sapiens)
# Construct: fused on or other part: N-terminal part of LMNA as fusion partner (part of the key); P02545 (Prelamin-A/C)
# Sequence (P04629 whole entry, change not shown, the tested form may be a part): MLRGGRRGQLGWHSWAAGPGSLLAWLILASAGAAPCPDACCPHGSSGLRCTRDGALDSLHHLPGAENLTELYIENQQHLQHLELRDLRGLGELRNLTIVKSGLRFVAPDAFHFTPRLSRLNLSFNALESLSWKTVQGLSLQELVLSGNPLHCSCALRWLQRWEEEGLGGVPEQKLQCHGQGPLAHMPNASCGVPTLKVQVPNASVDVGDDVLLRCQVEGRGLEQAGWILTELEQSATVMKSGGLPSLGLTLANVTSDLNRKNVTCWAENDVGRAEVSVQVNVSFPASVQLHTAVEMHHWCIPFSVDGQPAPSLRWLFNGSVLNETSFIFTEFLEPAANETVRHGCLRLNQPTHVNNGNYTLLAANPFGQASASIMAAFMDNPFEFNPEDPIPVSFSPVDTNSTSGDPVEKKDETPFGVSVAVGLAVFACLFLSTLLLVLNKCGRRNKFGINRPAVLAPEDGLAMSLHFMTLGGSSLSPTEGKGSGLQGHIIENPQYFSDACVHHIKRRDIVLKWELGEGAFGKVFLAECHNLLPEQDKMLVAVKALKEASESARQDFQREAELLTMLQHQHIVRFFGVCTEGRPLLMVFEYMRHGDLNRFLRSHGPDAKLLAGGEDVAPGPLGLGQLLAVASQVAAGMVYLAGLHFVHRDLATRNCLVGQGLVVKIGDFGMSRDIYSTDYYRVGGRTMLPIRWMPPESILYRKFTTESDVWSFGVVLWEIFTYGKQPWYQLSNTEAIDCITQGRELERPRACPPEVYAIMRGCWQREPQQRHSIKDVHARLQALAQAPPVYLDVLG
# assay.procedure: Inhibitory activity against cell proliferation (CellTiter-Glo, 72 hours)
# Assay type: cell-based
# conditions: read-out: Half maximal inhibitory concentration IC50 of cells, Ba/F3 LMNA-NTRK1-WT
recorded.endpoint: GI50 (nM)
// return numeric value only (unit: nM, not printed)

1. O=C1NC2(CC2)COc2ncc(F)cc2C2COCCN2c2ccn3ncc1c3n2 (single isomer, unassigned) [WX001B]	0.6
2. C[C@@H]1COc2ncc(F)cc2[C@H]2COC[C@@H](C)N2c2ccn3ncc(c3n2)C(=O)N1	1.5
3. C[C@@H]1CCc2ncc(F)cc2[C@H]2CCCN2c2ccn3ncc(c3n2)C(=O)N1 [LOXO-195, reference compound]	4.9

Would you kindly look at the next entry?
input: Form field: reported GI50 of C[C@H]1CNC(=O)c2cnn3ccc(nc23)N2CCOC[C@@H]2c2cc(F)cnc2O1 [WX004B]
output: 0.8

----------
Entries and their measured log10 IC50 follow.
# experimental.system: Ros1 (Homo sapiens, UniProt P08922)
# Construct: purchased Reaction Biology Corp
# Sequence (P08922 28-2347): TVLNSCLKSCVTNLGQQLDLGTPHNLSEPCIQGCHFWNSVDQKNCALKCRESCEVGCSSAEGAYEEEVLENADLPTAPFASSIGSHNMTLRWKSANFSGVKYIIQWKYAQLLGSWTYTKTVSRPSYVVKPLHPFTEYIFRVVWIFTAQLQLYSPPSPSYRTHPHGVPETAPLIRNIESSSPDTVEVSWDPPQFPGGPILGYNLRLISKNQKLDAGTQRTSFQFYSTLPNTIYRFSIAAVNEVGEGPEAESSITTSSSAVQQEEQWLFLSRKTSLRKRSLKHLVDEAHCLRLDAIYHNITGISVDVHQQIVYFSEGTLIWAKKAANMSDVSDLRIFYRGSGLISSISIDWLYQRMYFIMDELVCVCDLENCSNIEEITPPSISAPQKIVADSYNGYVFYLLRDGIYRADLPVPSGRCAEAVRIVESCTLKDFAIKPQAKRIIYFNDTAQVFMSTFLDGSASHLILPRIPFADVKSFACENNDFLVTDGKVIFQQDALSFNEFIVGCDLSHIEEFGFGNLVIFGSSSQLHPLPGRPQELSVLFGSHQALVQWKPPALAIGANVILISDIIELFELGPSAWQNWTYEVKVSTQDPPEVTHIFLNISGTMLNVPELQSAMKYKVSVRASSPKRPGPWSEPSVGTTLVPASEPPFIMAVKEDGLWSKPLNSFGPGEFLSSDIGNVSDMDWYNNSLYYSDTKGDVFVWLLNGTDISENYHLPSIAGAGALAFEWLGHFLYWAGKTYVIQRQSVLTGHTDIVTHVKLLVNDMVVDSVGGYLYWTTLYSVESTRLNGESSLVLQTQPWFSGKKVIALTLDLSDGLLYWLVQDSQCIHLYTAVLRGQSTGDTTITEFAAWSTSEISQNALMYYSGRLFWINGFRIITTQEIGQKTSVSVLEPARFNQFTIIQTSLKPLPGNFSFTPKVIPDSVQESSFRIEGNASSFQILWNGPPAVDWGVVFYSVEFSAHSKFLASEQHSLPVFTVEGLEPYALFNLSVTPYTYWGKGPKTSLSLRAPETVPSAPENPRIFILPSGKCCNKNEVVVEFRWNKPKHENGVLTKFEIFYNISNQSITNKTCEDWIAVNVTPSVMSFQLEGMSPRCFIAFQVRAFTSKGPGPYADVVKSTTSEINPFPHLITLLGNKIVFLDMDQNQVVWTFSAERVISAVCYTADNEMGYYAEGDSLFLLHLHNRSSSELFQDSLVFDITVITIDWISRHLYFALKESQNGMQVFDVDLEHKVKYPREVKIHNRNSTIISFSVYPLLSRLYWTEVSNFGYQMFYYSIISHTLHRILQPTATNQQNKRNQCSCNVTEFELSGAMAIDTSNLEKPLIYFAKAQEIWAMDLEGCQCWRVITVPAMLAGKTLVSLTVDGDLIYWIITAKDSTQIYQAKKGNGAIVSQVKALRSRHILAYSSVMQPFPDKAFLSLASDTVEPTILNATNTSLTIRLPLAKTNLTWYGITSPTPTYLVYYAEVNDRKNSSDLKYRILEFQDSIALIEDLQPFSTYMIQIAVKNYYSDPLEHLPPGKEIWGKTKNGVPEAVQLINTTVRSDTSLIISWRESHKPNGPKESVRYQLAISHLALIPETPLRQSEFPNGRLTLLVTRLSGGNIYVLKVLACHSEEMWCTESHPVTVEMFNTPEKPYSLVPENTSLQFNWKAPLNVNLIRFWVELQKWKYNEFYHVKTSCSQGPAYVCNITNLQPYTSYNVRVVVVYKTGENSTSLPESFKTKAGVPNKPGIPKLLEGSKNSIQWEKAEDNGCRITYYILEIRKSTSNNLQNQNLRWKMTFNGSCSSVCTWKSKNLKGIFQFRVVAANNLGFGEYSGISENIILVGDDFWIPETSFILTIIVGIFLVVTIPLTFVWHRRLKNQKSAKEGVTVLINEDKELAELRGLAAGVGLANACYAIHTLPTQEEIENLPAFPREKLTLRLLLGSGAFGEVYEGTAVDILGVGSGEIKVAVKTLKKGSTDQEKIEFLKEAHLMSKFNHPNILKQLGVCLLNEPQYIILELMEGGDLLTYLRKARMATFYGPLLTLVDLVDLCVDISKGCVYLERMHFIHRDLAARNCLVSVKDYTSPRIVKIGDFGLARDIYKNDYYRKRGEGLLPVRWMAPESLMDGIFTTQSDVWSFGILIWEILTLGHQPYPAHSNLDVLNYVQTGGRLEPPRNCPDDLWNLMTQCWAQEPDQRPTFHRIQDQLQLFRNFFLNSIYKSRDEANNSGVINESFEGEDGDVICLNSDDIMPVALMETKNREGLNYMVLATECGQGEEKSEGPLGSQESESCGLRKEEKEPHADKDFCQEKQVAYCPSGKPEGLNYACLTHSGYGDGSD
# assay.procedure: Kinase inhibitory activity (33P-ATP, filtration-binding method, Reaction Biology Corp.)
# Assay type: biochemical
# conditions: read-out: Half maximal inhibitory concentration IC50 for kinases, Ros1
Friendly reminder: values = log10 of IC50, unit nM.

Example results:
1. C[C@@H]1COc2ncc(F)cc2[C@H]2COC[C@@H](C)N2c2ccn3ncc(c3n2)C(=O)N1	0.68
2. C[C@@H]1COC[C@@H]2c3cc(F)cnc3O[C@@H](C)CNC(=O)c3cnn4ccc(nc34)N12	1.11
3. O=C1NC2(CC2)CNc2ncc(F)cc2C2COCCN2c2ccn3ncc1c3n2 (single isomer, unassigned) [WX010A]	1.46

input: Query for Ros1 (Homo sapiens, UniProt P08922): what log10 IC50 does the record show for O=C1N[C@@H]2COC[C@@H]2Oc2ncc(F)cc2[C@H]2COCCN2c2ccn3ncc1c3n2 [WX005A] ?
output: 0.49

input: Query for Ros1 (Homo sapiens, UniProt P08922): what log10 IC50 does the record show for O=C1NC2(CC2)COc2ccc(F)cc2C2CCCCN2c2ccn3ncc1c3n2 (single isomer, unassigned) [WX002A] ?
output: -0.70

----------
# experimental.system: TrkA-G595R (Homo sapiens, UniProt P04629, G595R)
# Construct: purchased Reaction Biology Corp
# Sequence (P04629 33-796 G595R): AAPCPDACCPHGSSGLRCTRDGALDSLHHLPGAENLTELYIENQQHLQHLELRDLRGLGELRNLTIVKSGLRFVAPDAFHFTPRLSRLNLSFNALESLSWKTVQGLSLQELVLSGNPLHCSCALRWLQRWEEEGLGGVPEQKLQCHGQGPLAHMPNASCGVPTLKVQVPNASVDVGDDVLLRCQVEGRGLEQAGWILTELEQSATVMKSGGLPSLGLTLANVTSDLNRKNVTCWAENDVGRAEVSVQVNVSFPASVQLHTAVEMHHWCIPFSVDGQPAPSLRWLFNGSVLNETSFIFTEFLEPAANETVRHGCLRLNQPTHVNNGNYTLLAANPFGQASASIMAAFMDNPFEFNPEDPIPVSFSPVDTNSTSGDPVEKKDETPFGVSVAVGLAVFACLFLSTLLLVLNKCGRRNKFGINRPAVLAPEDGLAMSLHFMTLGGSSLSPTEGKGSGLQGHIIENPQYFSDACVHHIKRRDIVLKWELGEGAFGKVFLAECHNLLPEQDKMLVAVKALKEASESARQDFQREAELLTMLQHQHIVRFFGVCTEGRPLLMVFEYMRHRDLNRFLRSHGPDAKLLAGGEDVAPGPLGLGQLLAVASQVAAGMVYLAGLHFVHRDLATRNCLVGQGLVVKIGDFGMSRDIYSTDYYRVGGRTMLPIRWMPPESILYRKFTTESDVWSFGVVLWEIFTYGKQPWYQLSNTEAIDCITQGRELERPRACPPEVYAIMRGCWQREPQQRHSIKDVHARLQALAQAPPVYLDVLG
# assay.procedure: Kinase inhibitory activity (33P-ATP, filtration-binding method, Reaction Biology Corp.)
# Format: biochemical
# conditions: read-out: Half maximal inhibitory concentration IC50 for kinases, TrkA-G595R
Entries and their measured log10 IC50 follow.
Friendly reminder: values = log10 of IC50, unit nM.

Example results:
1. O=C1NC2(CC2)COc2ncc(F)cc2[C@H]2CCOCCN2c2ccn3ncc1c3n2 [WX009A]	-0.05
2. O=C1NC2(CC2)CNc2ncc(F)cc2C2COCCN2c2ccn3ncc1c3n2 (single isomer, unassigned) [WX010A]	0.95

input: Form field: reported log10 IC50 of C[C@H]1CNC(=O)c2cnn3ccc(nc23)N2CCOC[C@@H]2c2cc(F)cnc2O1 [WX004B]
output: 0.43

input: Form field: reported log10 IC50 of C[C@@H]1COC[C@@H]2c3cc(F)cnc3OCC3(CC3)NC(=O)c3cnn4ccc(nc34)N12
output: -0.70

input: Form field: reported log10 IC50 of C[C@@H]1COC[C@@H]2c3cc(F)cnc3O[C@@H](C)CNC(=O)c3cnn4ccc(nc34)N12
output: -0.70

input: Form field: reported log10 IC50 of O=C1N[C@@H]2COC[C@@H]2Oc2ncc(F)cc2[C@H]2COCCN2c2ccn3ncc1c3n2 [WX005A]
output: -0.52

input: Form field: reported log10 IC50 of C[C@@H]1COc2ncc(F)cc2[C@H]2COC[C@@H](C)N2c2ccn3ncc(c3n2)C(=O)N1
output: -0.52

input: Form field: reported log10 IC50 of O=C1NC2(CC2)COc2ccc(F)cc2C2CCCCN2c2ccn3ncc1c3n2 (single isomer, unassigned) [WX002A]
output: 0.32
